Assignment: determine reported pIC50 for the given compounds.
STUDY_TARGET: UniProtKB Q9UBN7
Sequence (Q9UBN7 whole entry): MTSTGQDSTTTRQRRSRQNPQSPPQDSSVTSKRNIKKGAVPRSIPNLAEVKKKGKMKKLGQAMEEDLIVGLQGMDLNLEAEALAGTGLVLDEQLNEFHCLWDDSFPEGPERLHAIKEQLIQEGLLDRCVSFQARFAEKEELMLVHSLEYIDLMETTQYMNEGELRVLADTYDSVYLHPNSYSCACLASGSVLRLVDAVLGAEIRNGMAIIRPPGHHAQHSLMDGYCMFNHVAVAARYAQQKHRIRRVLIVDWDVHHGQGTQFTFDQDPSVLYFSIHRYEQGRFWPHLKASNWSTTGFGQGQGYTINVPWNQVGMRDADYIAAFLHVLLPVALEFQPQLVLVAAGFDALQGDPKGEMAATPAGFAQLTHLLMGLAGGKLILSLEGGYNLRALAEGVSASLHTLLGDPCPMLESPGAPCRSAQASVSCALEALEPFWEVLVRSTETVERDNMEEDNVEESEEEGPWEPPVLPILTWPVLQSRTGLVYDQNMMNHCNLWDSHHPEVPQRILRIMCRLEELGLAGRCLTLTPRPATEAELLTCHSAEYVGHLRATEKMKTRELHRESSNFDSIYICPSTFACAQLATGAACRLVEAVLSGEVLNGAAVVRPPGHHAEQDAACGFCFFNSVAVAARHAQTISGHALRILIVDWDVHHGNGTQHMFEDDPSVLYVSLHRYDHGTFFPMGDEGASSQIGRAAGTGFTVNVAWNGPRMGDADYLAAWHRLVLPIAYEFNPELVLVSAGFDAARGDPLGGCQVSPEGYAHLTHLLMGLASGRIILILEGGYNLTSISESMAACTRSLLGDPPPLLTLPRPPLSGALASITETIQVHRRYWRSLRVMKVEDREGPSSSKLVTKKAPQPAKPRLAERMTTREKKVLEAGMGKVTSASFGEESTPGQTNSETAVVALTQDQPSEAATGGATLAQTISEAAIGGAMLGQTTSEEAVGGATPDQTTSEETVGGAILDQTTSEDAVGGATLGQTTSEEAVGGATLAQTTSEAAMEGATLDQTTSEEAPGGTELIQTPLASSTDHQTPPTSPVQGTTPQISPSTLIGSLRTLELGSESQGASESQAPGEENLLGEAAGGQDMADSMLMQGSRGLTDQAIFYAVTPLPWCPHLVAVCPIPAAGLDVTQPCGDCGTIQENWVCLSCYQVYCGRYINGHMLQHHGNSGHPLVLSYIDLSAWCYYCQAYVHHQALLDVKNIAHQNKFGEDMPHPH
Answers are plain numbers, as −log10 of the molar value.

Below, each entry is followed by its recorded pIC50 result.
COMPOUND: C[C@@H](c1ccc(-c2nnc(C(F)F)o2)cc1)n1cc(-c2ccc(N)nc2)nn1 [US20230286970, Compound 255]
pIC50: 6.42
--
COMPOUND: C[C@H](c1ccc(-c2nnc(C(F)F)o2)cc1)n1cc(-c2ccc(N)nc2)nn1 [US20230286970, Compound 106]
pIC50: 7.39
--
COMPOUND: CN(C)C(=Nc1ccc(-c2cn(Cc3ccc(-c4nnc(C(F)F)o4)cc3)nn2)cc1)N(C)C [US20230286970, Compound 217]
pIC50: 6.81

Could you report pIC50 for every entry in the following list?
1. O=C(O)c1cccc(-c2nnn(Cc3ccc(-c4nnc(C(F)F)o4)cc3)n2)c1 [US20230286970, Compound 260]
2. Nc1ncc(-c2cccc(-c3nnn(Cc4ccc(-c5nnc(C(F)F)o5)cn4)n3)c2)s1 [US20230286970, Compound 38]
3. COc1ncc(NCc2ccc(-n3cc(Cc4ccc(-c5nnc(C(F)F)o5)cc4)nn3)cc2)cc1C(N)=O [US20230286970, Compound 286]
4. O=C1NCc2ccc(-c3nnn(Cc4ccc(-c5nnc(C(F)F)o5)cc4)n3)cc21 [US20230286970, Compound 55]

OUTPUT:
[6.32, 7.74, 7.00, 7.62]
